biological target: DRA1*0101/DRB1*0401 (Homo sapiens, UniProt P01903+P01911, A100K/A169T/F76Y/I96L/K127E/L162R/M171V/N62H/P40V/Q125Y/R42H/S133A/S149N/S66Y/V115G/V209L/W38E); construct: made in house; assay: biochemical; type: binding
Where no end group is shown, it is not given here.
parameter measured: Kd (nM)
Quick note: give the figure in nM, leave out the unit.

Query :: Assign Kd to the following record: YILLKKILSSRFNQM [hypothetical protein 239–253, reference compound]
Result :: 107

* * *

molecular target: DRA1*0101/DRB1*0302 (Homo sapiens, UniProt P01903+P01911, A100K/A102G/A103R/A169T/D57E/F76Y/I96L/K41T/L162R/M171V/P40S/Q125H/Q178H/Q39Y/R42S/S66N/T106N/T262R/V115G/W38E/Y61H); experiment: biochemical; format: binding
Where no end group is shown, it is not given here.
parameter measured: pKd
Entry type: numeric. Quantity: pKd, the -log10 of concentration in molar units.

Query :: Assign pKd to the following record: YILLKKILSSRFNQM [hypothetical protein 239–253, reference compound]
Result :: 6.81

From: paper PMC2866539
